Each recorded value in this set is attributed to patent US11053234B2.

Measured IC50 of individual entries
# STUDY TARGET: haematopoietic prostaglandin D synthase (H-PGDS) (Homo sapiens)
# Construct: Full length human H-PGDS cDNA (Invitrogen Ultimate ORF 10H13026) was amplified by PCR; 6-His (N); TEV protease cleavage site (N); made in house; host or cells: E. coli BL21 (DE3*), vector pET22b+
# Sequence (O60760 whole entry): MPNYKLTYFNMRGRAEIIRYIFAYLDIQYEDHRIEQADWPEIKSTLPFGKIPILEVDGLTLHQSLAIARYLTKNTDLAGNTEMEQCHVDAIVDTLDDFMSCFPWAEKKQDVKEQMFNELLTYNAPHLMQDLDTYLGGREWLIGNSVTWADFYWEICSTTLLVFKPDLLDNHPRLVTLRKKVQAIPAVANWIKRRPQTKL
# PROCEDURE DETAILS: H-PGDS RapidFire high throughput mass spectrometry assay (conversion of PGH2 to PGD2)
# Type: biochemical
# PROTOCOL CONDITIONS: 10 nM H-PGDS, PGH2 formed in situ by COX-2 from arachidonic acid; read-out: Potency Range (mean pIC50) (converted)

Reference set (2 entries):
>>> recorded_measurement("CS(=O)(=O)N1CCC(NC(=O)N2CC(Oc3cccc4scnc34)C2)CC1 [Example 97]")
"0.1 to 1 µM"
>>> recorded_measurement("CC(C)c1nnc(NC(=O)N2CC(Oc3cccc4scnc34)C2)s1 [Example 334]")
"0.01 to 0.0794 µM"

Query: Give its IC50 value. Item: NC(=O)c1cnc(NC(=O)[C@H]2C[C@H](Oc3cccc4cccnc34)C2)s1 [Example 191]
Result: 0.01 to 0.0794 µM

Query: Using the record for COc1ccc(F)cc1O[C@H]1C[C@H](C(=O)NC2CC(=O)Nc3ccccc32)C1 (mixture of isomers) [Example 153] , report its IC50.
Result: 0.01 to 0.0794 µM

Query: Give the measured IC50 of CC(C)(O)[C@H]1CC[C@H](NC(=O)[C@H]2C[C@H](Oc3ccccc3Cl)C2)CC1 [Example 282] .
Result: 0.1 to 1 µM

Query: Record request: IC50 value, item O=C(Nc1ccc(N2CCOCC2)cc1)N1CC(Oc2cccc3scnc23)C1 [Example 310]
Result: 0.01 to 0.0794 µM

Query: May I ask what IC50 has been recorded for CC(=O)c1csc(NC(=O)N2CC(Oc3cccc4scnc34)C2)n1 [Example 62] ?
Result: 0.01 to 0.0794 µM

Query: Would you kindly share the measured IC50 for O=C(N[C@H]1CC[C@H](N2CCOC2=O)CC1)N1CC(Oc2cccc3scnc23)C1 [Example 103] ?
Result: 0.1 to 1 µM

Query: Which IC50 value belongs to CC(C)(O)[C@H]1CC[C@H](NC(=O)N2CC(Oc3cc(F)cc4scnc34)C2)CC1 [Example 141] ?
Result: 0.01 to 0.0794 µM

Query: Returns the measured IC50 for the input molecule. Input: CC(=O)c1csc(NC(=O)[C@H]2C[C@H](Oc3cc(Cl)ccc3OC(F)F)C2)n1 [Example 272]
Result: 0.01 to 0.0794 µM
